src = ChEMBL document CHEMBL1122061

- Tested on: Oryctolagus cuniculus
- Assay details: Number of rabbits convulsed at 0.05 mg/kg, iv out of 4 rabbits tested
- Type: functional
Metric: No. of rabbits convulsed

Guide cases for No. of rabbits convulsed, answers given:
Molecule	No. of rabbits convulsed
CC1=CC2c3c(O)cc(CCCCCO)cc3OC(C)(C)[C@@H]2CC1 (stereo partly drawn)	2
CCCCCc1cc(O)c2c(c1)OC(C)(C)[C@@H]1CCC(C)CC21 (stereo partly drawn)	2
CCCCCc1cc(O)c2c(c1)OC(C)(C)[C@@H]1CC=C(C)CC21 (single isomer, unassigned; (-))	2
CCCCCc1cc(O)c2c(c1)OC(C)(C)[C@@H]1CC=C(C=O)CC21 (stereo partly drawn)	4
CCCCCc1cc(O)c2c(c1)OC(C)(C)[C@@H]1CCC(CO)=CC21 (stereo partly drawn)	4

Sample CCCCCc1cc(O)c2c(c1)OC(C)(C)[C@@H]1C[C@H](O)C(C)=CC21 (stereo partly drawn) , system: Oryctolagus cuniculus. Its No. of rabbits convulsed is 4

Sample CCCCCc1cc(O)c2c(c1)OC(C)(C)[C@@H]1CC=C(CO)CC21 (stereo partly drawn) , system: Oryctolagus cuniculus. Its No. of rabbits convulsed is 4

Sample CC(=O)Oc1cc(OC(C)CCCc2ccccc2)cc2c1[C@@H]1C[C@H](O)CC[C@H]1[C@H](C)N2 (single isomer, unassigned; (-)) [NANTRADOL] , system: Oryctolagus cuniculus. Its No. of rabbits convulsed is 3
